Listed molecules paired with reported TGI
test system: NCI-H522 lung; assay: NCI tumour cell line growth inhibition, 48 h

molecule: CCOC(CCCN1CCC2(CC1)C(=O)N(C)CN2c1ccccc1)(OCC)c1ccc(F)cc1
result: 34.2 µM
//
molecule: Cc1cccc(C(C)(C)C)c1NC(=O)C(=O)C(c1cnc2ccccc2n1)[N+](=O)[O-] (stereo not given)
result: > 100 µM
//
molecule: CCOC(=O)CN1CCSC1=NC#N
result: > 100 µM
//
molecule: Cc1cc(NS(=O)(=O)c2ccc(Nc3c4ccccc4nc4ccc(C(=O)Nc5ccc(S(=O)(=O)N=C(N)N)cc5)cc34)cc2)no1
result: > 100 µM

Let us examine a further case.
Data request: For the molecule shown here, O=[N+]([O-])c1ccc(CS(=O)Cc2ccccc2)cc1 (stereo not given) , give the reported TGI.
Data returned: > 100 µM

Sourced from PubChem BioAssay (NCI)
